Biological target: T1, Chryseobacterium sp-62563 deamidase polypeptide (second polypeptide, deamidase domain), wildtype (Chryseobacterium sp-62563)
T1 sequence: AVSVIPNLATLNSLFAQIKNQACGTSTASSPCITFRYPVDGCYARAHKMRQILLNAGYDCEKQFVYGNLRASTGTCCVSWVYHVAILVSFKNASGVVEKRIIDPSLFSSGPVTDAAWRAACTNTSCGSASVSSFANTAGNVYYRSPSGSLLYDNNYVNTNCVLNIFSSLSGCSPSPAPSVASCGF
Assay: cell-based or functional assay

binder	Leakage activity
Chryseobacterium sp-62563 propeptide V25H (protein) NQDPNLVAKESNETAMKDFGKTVPHGIEKEDGKFKISFMVTAQPYEIKDSKENAAYISMIKTAVENETPIHVFLKANTNEIAKVDKATDDDIRYFKSVFTKEVKEENRK	1%
Chryseobacterium sp-62563 propeptide Y45G (protein) NQDPNLVAKESNETAMKDFGKTVPVGIEKEDGKFKISFMVTAQPGEIKDSKENAAYISMIKTAVENETPIHVFLKANTNEIAKVDKATDDDIRYFKSVFTKEVKEENRK	2%
Chryseobacterium sp-62563 propeptide E13C (protein) NQDPNLVAKESNCTAMKDFGKTVPVGIEKEDGKFKISFMVTAQPYEIKDSKENAAYISMIKTAVENETPIHVFLKANTNEIAKVDKATDDDIRYFKSVFTKEVKEENRK	0%
Chryseobacterium sp-62563 propeptide V23Y (protein) NQDPNLVAKESNETAMKDFGKTYPVGIEKEDGKFKISFMVTAQPYEIKDSKENAAYISMIKTAVENETPIHVFLKANTNEIAKVDKATDDDIRYFKSVFTKEVKEENRK	0%
